target-or-system: Metabotropic glutamate receptor 7 (Homo sapiens, UniProt Q14831)
Sequence (Q14831 whole entry): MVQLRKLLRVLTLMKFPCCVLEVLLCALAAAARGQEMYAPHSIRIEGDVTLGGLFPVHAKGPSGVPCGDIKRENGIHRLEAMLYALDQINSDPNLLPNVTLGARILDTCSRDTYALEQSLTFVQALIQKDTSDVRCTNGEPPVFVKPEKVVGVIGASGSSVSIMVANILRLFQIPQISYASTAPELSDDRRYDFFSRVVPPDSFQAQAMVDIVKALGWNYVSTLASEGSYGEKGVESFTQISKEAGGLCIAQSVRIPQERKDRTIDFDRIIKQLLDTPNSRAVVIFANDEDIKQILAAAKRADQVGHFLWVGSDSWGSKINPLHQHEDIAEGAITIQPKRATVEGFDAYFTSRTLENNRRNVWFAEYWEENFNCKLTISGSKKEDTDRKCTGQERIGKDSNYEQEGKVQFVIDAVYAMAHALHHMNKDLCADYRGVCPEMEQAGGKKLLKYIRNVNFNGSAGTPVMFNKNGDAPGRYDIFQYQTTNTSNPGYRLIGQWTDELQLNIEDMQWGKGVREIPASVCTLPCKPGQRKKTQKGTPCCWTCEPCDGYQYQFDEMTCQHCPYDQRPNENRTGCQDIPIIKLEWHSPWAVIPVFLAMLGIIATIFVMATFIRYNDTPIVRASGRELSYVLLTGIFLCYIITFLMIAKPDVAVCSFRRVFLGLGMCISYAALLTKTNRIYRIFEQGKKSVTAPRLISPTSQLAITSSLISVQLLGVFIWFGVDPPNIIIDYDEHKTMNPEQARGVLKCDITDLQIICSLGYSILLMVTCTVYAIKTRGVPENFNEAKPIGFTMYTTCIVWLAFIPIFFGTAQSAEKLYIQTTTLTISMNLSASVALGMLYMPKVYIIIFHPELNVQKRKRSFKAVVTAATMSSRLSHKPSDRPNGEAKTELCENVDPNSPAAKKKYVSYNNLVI
method-summary: Agonist activity at mGlu7 (unknown origin) expressed in HEK293 cells coexpressing chimeric Gq/i protein assessed as increase in intracellular calcium accumulation by Fluo-4 AM dye based fluorescence assay
Assay type: functional, cell-based
assay-readout: EC50

List EC50 for every entry below, keeping the order given.
1. N[C@@H](CCP(=O)(O)C(O)c1ccc([N+](=O)[O-])cc1)C(=O)O (some centres undefined)
2. N[C@@H](CCP(=O)(O)[C@@H](O)c1cc(F)c(O)c([N+](=O)[O-])c1)C(=O)O
3. N[C@@H](CCP(=O)(O)Cc1cccc([N+](=O)[O-])c1)C(=O)O
4. N[C@@H](CCP(=O)(O)C(O)c1ccc(Cl)c([N+](=O)[O-])c1)C(=O)O (some centres undefined)
5. N[C@@H](CCP(=O)(O)C(O)c1ccc([N+](=O)[O-])s1)C(=O)O (some centres undefined)

["> 100 µM", "53.8 µM", "> 100 µM", "> 100 µM", "> 100 µM"]

List EC50 for every entry below, keeping the order given.
1. COc1cc([C@H](O)P(=O)(O)CC[C@H](N)C(=O)O)cc([N+](=O)[O-])c1O
2. Nc1ccc(C(O)P(=O)(O)CC[C@H](N)C(=O)O)cc1 (some centres undefined)
3. N[C@@H](CCP(=O)(O)C(O)c1ccc(F)c([N+](=O)[O-])c1)C(=O)O (some centres undefined)

1. 100 µM
2. 11.6 µM
3. > 100 µM

List EC50 for every entry below, keeping the order given.
1. N[C@@H](CCP(=O)(O)C(O)c1ccc(N2CCOCC2)c([N+](=O)[O-])c1)C(=O)O (some centres undefined)
2. N[C@@H](CCP(=O)(O)C(O)c1cc(O)c(O)c([N+](=O)[O-])c1)C(=O)O (some centres undefined)
3. COc1ccc([C@H](O)P(=O)(O)CC[C@H](N)C(=O)O)cc1[N+](=O)[O-]
4. N[C@H](C(=O)O)c1ccc(C(=O)O)c(C(=O)O)c1
5. N[C@@H](CCP(=O)(O)Cc1ccc(O)c([N+](=O)[O-])c1)C(=O)O
6. CS(=O)(=O)c1ccc(C(O)P(=O)(O)CC[C@H](N)C(=O)O)cc1 (some centres undefined)

> 100 µM
> 100 µM
> 100 µM
30 to 100 µM
> 100 µM
> 100 µM

====

Can you tell me EC50 for the items I'm about to list?
target-or-system: Metabotropic glutamate receptor 7 (Homo sapiens)
method-summary: Agonist activity at mGlu7 (unknown origin) expressed in HEK293 cells coexpressing chimeric Gq/i protein assessed as increase in intracellular calcium accumulation by Fluo-4 AM dye based fluorescence assay
Type: functional, cell-based
Numbers only, in µM.

molecule	EC50 (µM)
N[C@@H](CCP(=O)(O)O)C(=O)O	249
N[C@@H](CCP(=O)(O)C(O)c1cc(F)c(O)c([N+](=O)[O-])c1)C(=O)O (stereo partly drawn)	51.2

// next item, EC50 requested
Please give the measured EC50 for this molecule: "N[C@@H](CCP(=O)(O)[C@H](O)c1ccc(O)c([N+](=O)[O-])c1)C(=O)O"
62
